Origin of values: patent US8476298B2

biological target: c-Kit kinase (Homo sapiens, UniProt P10721); test: c-Kit AlphaScreen kinase assay; format: biochemical; conditions: Table 4, inhibition as IC50 class;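 also: c-Kit kinase phosphorylating biotinylated poly(Glu,Tyr), ATP near its KM, 1 h reaction at ambient temperature, AlphaScreen chemiluminescence with streptavidin donor and anti-phosphotyrosine acceptor beads, 10-point inhibitor titration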
Sequence (P10721 26-976): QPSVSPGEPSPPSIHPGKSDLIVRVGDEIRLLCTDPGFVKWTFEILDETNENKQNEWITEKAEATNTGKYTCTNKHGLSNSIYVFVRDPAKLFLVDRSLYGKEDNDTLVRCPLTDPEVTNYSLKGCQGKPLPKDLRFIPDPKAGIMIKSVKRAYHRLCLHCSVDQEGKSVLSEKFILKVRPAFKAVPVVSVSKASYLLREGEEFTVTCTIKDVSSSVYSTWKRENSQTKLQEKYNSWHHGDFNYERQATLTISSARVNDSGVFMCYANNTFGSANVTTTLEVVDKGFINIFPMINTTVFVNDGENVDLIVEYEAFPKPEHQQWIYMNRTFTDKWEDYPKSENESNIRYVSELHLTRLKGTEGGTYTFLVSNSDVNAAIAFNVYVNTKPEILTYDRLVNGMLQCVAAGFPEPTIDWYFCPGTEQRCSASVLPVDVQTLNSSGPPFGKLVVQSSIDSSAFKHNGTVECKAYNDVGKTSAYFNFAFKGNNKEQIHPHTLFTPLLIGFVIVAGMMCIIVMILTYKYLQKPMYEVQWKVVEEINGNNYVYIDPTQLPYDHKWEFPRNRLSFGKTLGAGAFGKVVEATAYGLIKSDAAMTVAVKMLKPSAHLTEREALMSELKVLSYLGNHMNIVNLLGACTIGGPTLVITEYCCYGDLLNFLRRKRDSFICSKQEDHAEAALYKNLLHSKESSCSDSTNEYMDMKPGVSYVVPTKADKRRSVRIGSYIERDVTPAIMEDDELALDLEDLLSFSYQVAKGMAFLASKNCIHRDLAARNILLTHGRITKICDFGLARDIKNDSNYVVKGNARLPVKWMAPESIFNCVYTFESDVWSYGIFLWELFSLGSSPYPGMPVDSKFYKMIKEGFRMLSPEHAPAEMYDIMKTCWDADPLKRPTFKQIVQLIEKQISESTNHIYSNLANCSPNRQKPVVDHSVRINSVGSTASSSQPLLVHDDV
QUANTITY: IC50

Completed entries (count: 2):
{"columns": ["COMPOUND", "RESULT"],
 "data": [
  ["COc1cc2c(Oc3ccc(NC(=O)C(=O)NC4CCc5ccccc54)cc3F)ccnc2cc1OCC1CCNCC1 (centres unmarked) [Example 177]", "< 50 nM"],
  ["COc1cc2c(Oc3ccc(NC(=O)C(=O)NCCc4ccccc4)cc3F)ccnc2cc1OCC1CN(C)C1 [Example 250]", "< 50 nM"]
]}

Hi! Can you tell me IC50 for each of these compounds?
1. COc1cc2c(Oc3ccc(NC(=O)C(=O)N[C@@H]4CCCc5ccccc54)cc3F)ccnc2cc1OCC1CCNCC1 [Example 218]
2. COc1cc2c(Oc3ccc(NC(=O)C(=O)NCc4cc(C(F)(F)F)ccc4F)cc3F)ccnc2cc1OCC1CCNCC1 [Example 281]
3. COc1cc2c(Oc3ccc(NC(=O)C(=O)Nc4ccc(F)c(Cl)c4)cc3F)ccnc2cc1OCC1CCNCC1 [Example 261]
4. COc1cc2c(Oc3ncc(NC(=O)CC(=O)Nc4ccc(F)cc4)cc3Cl)ccnc2cc1OCCCN1CCCCC1 [Example 265]
5. COc1cc2c(Oc3ccc(NC(=O)C(=O)NCc4cc(F)cc(C(F)(F)F)c4)cc3F)ccnc2cc1OCC1CCNCC1 [Example 232]
6. COc1cc2c(Oc3ccc(NC(=O)C(=O)N[C@@H](C)c4ccccc4)cc3F)ccnc2cc1OCC1CCNCC1 [Example 184]

Reply:
1: 50 to 500 nM; 2: 50 to 500 nM; 3: 500 to 5000 nM; 4: 50 to 500 nM; 5: 50 to 500 nM; 6: < 50 nM

Hi! Can you tell me IC50 for each of these compounds?
1. COc1cc2c(Oc3ccc(NC(=O)C(=O)NC(C)c4ccc(Br)cc4)cc3F)ccnc2cc1OCC1CCNCC1 (centres unmarked) [Example 221]
2. COc1cc2c(Oc3ccc(NC(=O)C(=O)NCc4cnccn4)cc3F)ccnc2cc1OCC1CCNCC1 [Example 273]
3. COc1cc2c(Oc3ccc(NC(=O)C(=O)NCCc4ccc(C)cc4)cc3F)ccnc2cc1OCC1CCNCC1 [Example 271]
4. COc1cc2nccc(Oc3ccc(NC(=O)C(=O)NCC(c4ccccc4)N(C)C)cc3F)c2cc1OC (centres unmarked) [Example 235]
5. COc1cc2c(Oc3ccc(NC(=O)C(=O)NCc4cc(C(F)(F)F)ccc4Cl)cc3F)ccnc2cc1OCC1CCNCC1 [Example 234]
6. COc1ccc(NC(=O)C(=O)Nc2ccc(Oc3ccnc4cc(OCC5CCNCC5)c(OC)cc34)c(F)c2)cc1OC [Example 262]

Reply:
["50 to 500 nM", "500 to 5000 nM", "50 to 500 nM", "50 to 500 nM", "50 to 500 nM", "500 to 5000 nM"]
